Tested on: OVCAR-5 ovarian
Assay: NCI tumour cell line growth inhibition, 48 h
measuredEndpoint: TGI

Incoming: Lookup: TGI / OVCAR-5 ovarian / COc1ccc(CC2COc3cc(O)cc(O)c3C2=O)cc1O (stereo not given)
Outgoing: > 100 µM

Incoming: Please tell me: TGI of CN1/C(=C\C=C\C2=[N+](C)c3ccccc3C2(C)C)C(C)(C)c2ccccc21 , system OVCAR-5 ovarian?
Outgoing: 15.5 µM

Incoming: Hello, I am looking for reported TGI with OVCAR-5 ovarian for Cn1c2ccccc2c(=O)c2c(O)cc3c(c21)C=CC1(CCCCC1)O3 . Could you help?
Outgoing: > 10 µM

Incoming: Return TGI measured with OVCAR-5 ovarian given this molecule: COC(=O)C1(Cc2ccc3c(c2)CCC3)Cc2ccccc2C1
Outgoing: > 100 µM

Incoming: Form entry - test system: OVCAR-5 ovarian; read-out: TGI; molecule: CCCCCCCCCc1nn2c(Cc3ccccc3)nnc2s1
Outgoing: 29.6 µM

Incoming: Form: Entry = CC(C)(C)c1cc(C(=O)/C=C/c2ccc3c(c2)OCO3)cc(C(C)(C)C)c1O | System = OVCAR-5 ovarian | TGI = ____
Outgoing: > 76.9 µM

Incoming: Please state recorded TGI (tested on OVCAR-5 ovarian) of CN(C)c1ccc(-c2ccc(-c3ccc(C(=N)N)cc3)s2)cc1
Outgoing: 3.38 µM

Incoming: Entry O=c1c2cc(Br)ccc2nc(CCl)n1-c1ccc(O)c([N+](=O)[O-])c1 , system OVCAR-5 ovarian: what TGI was measured?
Outgoing: > 100 µM

Incoming: Please state recorded TGI (tested on OVCAR-5 ovarian) of Oc1ccccc1-c1nn(CNc2ccccc2Cl)c(=S)o1
Outgoing: > 100 µM

Incoming: Identify the measured TGI of CN(C)CCC(=O)/C=C\c1ccccc1 for OVCAR-5 ovarian.
Outgoing: 35.7 µM

Incoming: Identify the measured TGI of CC12CCCC3(CC(=O)C(C)(C)C3C(=O)C1)C2 (stereo not given) for OVCAR-5 ovarian.
Outgoing: > 100 µM

Incoming: State its TGI on OVCAR-5 ovarian: CC(=O)N1CCC2(c3ccccc3N(C(C)=O)C2c2ccc(O)cc2)C1C(=O)O (stereo not given)
Outgoing: > 100 µM

Incoming: Kindly state the measured TGI obtained for Cc1ccc(NC(=O)c2cc(S(=O)(=O)N3C(=O)NC(=O)NS3(=O)=O)c(S)cc2Cl)cc1 with OVCAR-5 ovarian.
Outgoing: > 100 µM

Incoming: Short answer please: TGI, OVCAR-5 ovarian, entry CC(=O)/C(=C/c1ccccc1F)C(=O)c1ccccc1
Outgoing: > 100 µM

Incoming: Value wanted: TGI (OVCAR-5 ovarian) of entry CCOC(=O)c1nc2cc(C(F)(F)F)ccc2nc1Nc1ccc(C(=O)NC(C(=O)OCC)C(=O)OCC)cc1
Outgoing: > 100 µM
